- Tested on: HEK293T (UBE3A T485A transfected, BAR Wnt reporter)
- runDescription: Renilla luciferase signal (cell health) relative to plate median (fold (linear ratio)); higher = higher Renilla signal
- measurementConditions: concentration: 100 uM; 24 h
The full ranking holds about 1,100 compounds; the median of “Renilla luciferase signal (cell health) relative to plate median” is about 0.97, and the highest 2% start at about 1.6. This is one part of a sample in which the highest values are shown more often than they occur.
Let's look at some compounds and their measured Renilla luciferase signal.
Reply briefly: the number, and no unit.

Some solved entries appear below for comparison.
In [3]: df
Out[3]:
                                   compound  assayvalue
0  CCCCCCCCCc1ccc(O)cc1 [4-Nonylphenol, branched]       0.973
1  CCC(=O)O[C@H]1CC[C@H]2[C@@H]3CCC4=CC(=O)CC[C@]4(C)[C@H]3CC[C@]12C [Testosterone propionate]        1.11
2    CSc1nc(NC(C)C)nc(NC(C)C)n1 [Prometryn]       0.989

Q: What does the data say about its Renilla luciferase signal? Entry: CCCCC(CC)COC(=O)CCCCC(=O)OCC(CC)CCCC (centres undefined) [Di(2-ethylhexyl) adipate]
Ans: 1.76

Q: Then N#Cc1c(Cl)cccc1Cl [Dichlobenil] ?
Ans: 1.96

Q: Then CC(Oc1cccc(Cl)c1)C(=O)O (centres undefined) [Cloprop] ?
Ans: 2.51

Q: Then CC(Oc1ccc(Cl)cc1Cl)C(=O)O (centres undefined) [Dichlorprop] ?
Ans: 1.6

Q: Then C[C@]12CCC(=O)C[C@@H]1CC[C@@H]1[C@@H]2CC[C@]2(C)[C@@H](O)CC[C@@H]12 [5alpha-Dihydrotestosterone] ?
Ans: 2.06

Q: Then CC(C)OC(=O)Nc1cccc(Cl)c1 [Chlorpropham] ?
Ans: 0.766

Q: Then Clc1cccc(Cl)c1Cl [1,2,3-Trichlorobenzene] ?
Ans: 1.43

Q: Then CCNc1nc(Cl)nc(NC(C)C)n1 [Atrazine] ?
Ans: 1.18

---

Let's look at some compounds and their measured Renilla luciferase signal.
- Test system: HEK293T (UBE3A T485A transfected, BAR Wnt reporter)
- runDescription: Renilla luciferase signal (cell health) relative to plate median (fold (linear ratio)); higher = higher Renilla signal
- measurementConditions: concentration: 10 uM; 24 h
Whole data set: some 1,100 compounds, median “Renilla luciferase signal (cell health) relative to plate median” near 0.97, cut for the highest 2% near 1.6. This is one part of a sample in which the highest values are shown more often than they occur.
Reply briefly: the number, and no unit.

Some solved entries appear below for comparison.
>>> df
                                   compound  assayvalue
0     CCC(C)c1ccc(O)cc1 (centres undefined)       0.967
1  CC(C)CCCCCCCOC(=O)c1ccccc1C(=O)OCCCCCCCC(C)C         1.1
2              CC(O)CCO (centres undefined)        1.16

Q: What does the data say about its Renilla luciferase signal? Entry: CCC(C)Nc1c([N+](=O)[O-])cc(C(C)(C)C)cc1[N+](=O)[O-] (centres undefined)
Ans: 1.04

Q: Then CCC(C)(NC(=O)c1cc(Cl)c(C)c(Cl)c1)C(=O)CCl (centres undefined) [Zoxamide] ?
Ans: 0.117

Q: Then COP(=O)(NC(C)=O)SC (centres undefined) [Acephate] ?
Ans: 1

---

- Test system: HEK293T (UBE3A T485A transfected, BAR Wnt reporter)
- runDescription: Renilla luciferase signal (cell health) relative to plate median (fold (linear ratio)); higher = higher Renilla signal
- measurementConditions: concentration: 0.1 uM; 24 h
In all, about 1,100 compounds were measured (“Renilla luciferase signal (cell health) relative to plate median”: median about 0.97, highest 2% from about 1.6 on). Only a selection was taken, and the highest values are over-represented in it overall.
Use 1 as the dividing line for Renilla luciferase signal, with the line itself on the 1.0 side and lower values as 0.0.

>>> print(df.to_string())
                                   compound  labelclass
0  O=C([O-])C(F)(F)C(F)(F)C(F)(F)C(F)(F)C(F)(F)C(F)(F)C(F)(F)F.[NH4+] [PFOA, ammonium salt]         0.0
1  CC(C)(O)C(=O)Nc1ccc([N+](=O)[O-])c(C(F)(F)F)c1 [Hydroxyflutamide]         0.0
2  O=C(O)C1(c2ccc3c(c2)OC[C@H](Cc2ccc(-c4ccccc4)cc2)[C@H]3O)CCCC1         0.0
3                     Cc1ccccc1[N+](=O)[O-]         1.0

Q: Does the compound CCOP(=S)(OCC)OC(Cl)C(Cl)(Cl)Cl (centres undefined) have recorded Renilla luciferase signal that is 1 or more?
Ans: 0.0

Q: Then `Clc1ccccc1Cl` ?
Ans: 1.0

Q: Then `C1=Cc2cccc3cccc1c23` ?
Ans: 0.0

Q: Then CCC[CH2][Sn]([Cl])([CH2]CCC)[CH2]CCC [Tributyltin chloride] ?
Ans: 0.0

Q: Then `c1ccc(OP(Oc2ccccc2)Oc2ccccc2)cc1` ?
Ans: 1.0

Q: Then CC(C)N(C(=O)SCC(Cl)=C(Cl)Cl)C(C)C [Tri-allate] ?
Ans: 1.0

---

Let's look at some molecules and their measured Renilla luciferase signal.
- Tested on: HEK293T (UBE3A T485A transfected, BAR Wnt reporter)
- runDescription: Renilla luciferase signal (cell health) relative to plate median (fold (linear ratio)); higher = higher Renilla signal
- measurementConditions: concentration: 0.01 uM; 24 h
In all, about 1,100 compounds were measured (“Renilla luciferase signal (cell health) relative to plate median”: median about 0.97, highest 2% from about 1.6 on). The sample holds the highest values, similar compounds and a random draw of the others, so the mix is not that of the screen.
Reply briefly: the number, and no unit.

molecule	targetOrSystem	Renilla luciferase signal
CCCSP(=O)(OCC)Oc1ccc(Br)cc1Cl (stereo not drawn) [Profenofos]	HEK293T (UBE3A T485A transfected, BAR Wnt reporter)	0.9
CN1COCN(Cc2cnc(Cl)s2)C1=N[N+](=O)[O-] [Thiamethoxam]	HEK293T (UBE3A T485A transfected, BAR Wnt reporter)	1.14
CC1COC(Cn2cncn2)(c2ccc(Oc3ccc(Cl)cc3)cc2Cl)O1 (stereo not drawn) [Difenoconazole]	HEK293T (UBE3A T485A transfected, BAR Wnt reporter)	1.03
CCCN(CCC)c1c([N+](=O)[O-])cc(S(N)(=O)=O)cc1[N+](=O)[O-] [Oryzalin]	HEK293T (UBE3A T485A transfected, BAR Wnt reporter)	1.08
CC(C)[C@H](C(=O)O[C@H](C#N)c1cccc(Oc2ccccc2)c1)c1ccc(Cl)cc1 [Esfenvalerate]	HEK293T (UBE3A T485A transfected, BAR Wnt reporter)	0.932
CCC(C)C1OC2(C=CC1C)CC1CC(CC=C(C)C(OC3CC(OC)C(OC4CC(OC)C([NH2+]C)C(C)O4)C(C)O3)C(C)C=CC=C3COC4C(O)C(C)=CC(C(=O)O1)C34O)O2.O=C([O-])c1ccccc1 (stereo not drawn) [Emamectin benzoate]	HEK293T (UBE3A T485A transfected, BAR Wnt reporter)	1.02
CCC(C)(NC(=O)c1cc(Cl)c(C)c(Cl)c1)C(=O)CCl (stereo not drawn) [Zoxamide]	HEK293T (UBE3A T485A transfected, BAR Wnt reporter)	1.25

Turning now to a further record.
Q: What Renilla luciferase signal appears in the records for this molecule with HEK293T (UBE3A T485A transfected, BAR Wnt reporter)? CSC(=O)c1c(C(F)F)nc(C(F)(F)F)c(C(=O)SC)c1CC(C)C [Dithiopyr]
Ans: 0.664

---

Let's look at some molecules and their measured Renilla luciferase signal.
- System: HEK293T (UBE3A T485A transfected, BAR Wnt reporter)
- runDescription: Renilla luciferase signal (cell health) relative to plate median (fold (linear ratio)); higher = higher Renilla signal
- measurementConditions: concentration: 1 uM; 24 h
In all, about 1,100 compounds were measured (“Renilla luciferase signal (cell health) relative to plate median”: median about 0.97, highest 2% from about 1.6 on). Shown is part of a subset that was picked to be rich in the highest values.
Reply briefly: the number, and no unit.

Q: What does the data say about its Renilla luciferase signal? Entry: `O=C(O)C(F)(F)C(F)(F)C(F)(F)C(F)(F)C(F)(F)C(F)(F)C(F)(F)F`
Ans: 0.834

Q: Then `O=C(O)C(F)(F)C(F)(F)C(F)(F)C(F)(F)C(F)(F)C(F)(F)C(F)(F)C(F)(F)C(F)(F)C(F)(F)F` ?
Ans: 0.837

---

- System: HEK293T (UBE3A T485A transfected, BAR Wnt reporter)
- runDescription: Renilla luciferase signal (cell health) relative to plate median (fold (linear ratio)); higher = higher Renilla signal
- measurementConditions: concentration: 100 uM; 24 h
Over roughly 1,100 compounds, “Renilla luciferase signal (cell health) relative to plate median” has its median near 0.97; the highest 2% begin near 1.6. The list comes from a sample in which the highest values are over-represented; it also holds close analogues and randomly drawn compounds.
Let's look at some compounds and their measured Renilla luciferase signal.

>>> print(df.to_string())
                                   compound  assayvalue
0  CC1(c2ccc(Oc3ccccc3)cc2)OC(=O)N(Nc2ccccc2)C1=O (stereo not given)        1.15
1  Cc1c(F)c(F)c(COC(=O)C2C(/C=C(\Cl)C(F)(F)F)C2(C)C)c(F)c1F (stereo not given)        1.47
2         CNC(=O)CSP(=S)(OC)OC [Dimethoate]        1.67
3  CC1COC(Cn2cncn2)(c2ccc(Oc3ccc(Cl)cc3)cc2Cl)O1 (stereo not given)       0.152

Turning now to a further record.
Q: What does the data say about its Renilla luciferase signal? Entry: `Cc1ccc([N+](=O)[O-])cc1N`
Ans: 0.978
